Provide the recorded Percent Inhibition for the entries that follow.
# System: C8166
# assay.protocol: Cell panel screen (CellTiter-Glo)
# Type: cell-based, human
# cond: C8166 (Leukemia), 20 micromolar, 72 hrs
Field: value (include unit after the number)

q: Notebook: pull reported Percent Inhibition for C8166, entry CC(C)=CCCC1(C)C=Cc2c(O)c3c(c(CC=C(C)C)c2O1)OC12C(=CC4CC1C(C)(C)OC2(CC=C(C)C(=O)O)C4=O)C3=O (mixture of isomers) [GB8]
a: 100%

q: Now the same for "COc1cc(O)c2c(=O)c3cc4c(c(O)c3oc2c1CC=C(C)C)OC(C)(C)C=C4"
a: 25%

q: Now the same for CC(C)=CCCC1(C)C=Cc2c(O)c3c(c(CC=C(C)C)c2O1)OC12C(=CC4CC1C(C)(C)OC2(CC=C(C)C(=O)O)C4=O)C3=O (mixture of isomers) [GB14]
a: 97%
